System: PPARg:RXRa 90nM:30nM, anti-RXR (NR concentration 90 nM, RXRa partner concentration 30 nM)
Assay: PBM binding z-score (relative to random genomic background probes); higher = stronger binding; sequences stand for … in GC…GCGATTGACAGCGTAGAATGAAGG
test readout: PBM binding z-score

1. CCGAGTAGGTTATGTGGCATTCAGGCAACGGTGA 0.651
2. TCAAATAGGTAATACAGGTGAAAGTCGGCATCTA 3.5
3. AGAATGAGGTTAAGATCAAGGAAACAGAATACAT 1.76
4. CGTGCAAGGTCAAAGGTCAGTGAAGAGATGACGG 9.38
5. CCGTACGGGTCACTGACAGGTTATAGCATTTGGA 2.52
6. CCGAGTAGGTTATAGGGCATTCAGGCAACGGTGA 6.5
7. CAAACTAGGTCACGAAAGGTCAAAGACGAATGAC 8.93
8. CAAACTAGGTCACCGGAAGGTGAAAGTCCGCATG 7.31
9. TAGCCTAGGTCATTCAGGTGCCAGTATAGAAAGC 1.54

---

System: PPARg DBDmut:RXRa IVT, anti-PPARg (DBD mutation: PPARg1 K132A/R137A, NR concentration 270 nM, RXRa partner concentration 90 nM)
Test: PBM binding z-score (relative to random genomic background probes); higher = stronger binding; sequences stand for … in GC…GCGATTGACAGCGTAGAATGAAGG
test readout: PBM binding z-score

1) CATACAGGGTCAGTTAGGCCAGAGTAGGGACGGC 1
2) ATCGAAAGGTCGCGAGGTGAGTATACAGAAAGGC 1.02
3) AACTCTAGGTAAAGATAGTTCAGTGAATGCAAAT 1.03
4) TCGAGCAGGTTACCAATGGGGCATTCAGCTTTCT -1.51
5) CCGACTGGGGCATAATGTTACCATAAGCCAGCCC -0.872
6) TAGCCTAGGTCATGGGCCAGTATGCCACGCGAAC -0.369
7) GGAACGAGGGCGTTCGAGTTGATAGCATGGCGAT -1.48
8) AGTCAAAGTTCAGGTCGAGGTAACGTAAAGCACG 0.434
9) CCTAGTTGGTCATGGTCACACACGCTATAGGTAC 0.378
10) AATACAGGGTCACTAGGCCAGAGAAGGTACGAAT 1.28

---

Here, each record is paired with measured PBM binding z-score data.
System: RARb:RXRa (NR concentration 270 nM, RXRa partner concentration 90 nM)
Test: PBM binding z-score (relative to random genomic background probes); higher = stronger binding; sequences stand for … in GC…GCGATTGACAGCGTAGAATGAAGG
test readout: PBM binding z-score

1) CCAGACAGGTGAGCAGGTAACTCAGCCTCGATTA 0.568
2) GGAACGAGGGCATTCGAGTTGACAGCATGGCGAT 1.87
3) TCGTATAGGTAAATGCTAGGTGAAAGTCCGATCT 0.432
4) CGCCAAAGTTCAAGGTAACGTAACAGAAAGCAGC 5.28
5) CCGACTGGGGCAGAAAGGTTACCATACCATCCGG 1.74
6) GGAACGAGGGCAAATTTGATAGCATCTGTCGACG 2.19
7) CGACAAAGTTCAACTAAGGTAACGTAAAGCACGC 5.07
8) TCTTGTAGATCAAGCAGGTGAAGAAAGCCTGAGT -0.159
9) ATCGAAAGGTCGAGGTCAGTATAGAGAAAGGGAA 5.1
10) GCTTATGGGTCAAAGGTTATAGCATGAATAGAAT 4.41
11) CGTCCAAGGTCAGGGAGGTCAGTGAATGCCGAGT 5.33
12) GCAATTAGTTGAAAGGGCAACCGAATGATTCTCG 2.15
13) CCTAGCAGGCCAATCTGGGTCACTCAAGGCTTGA 1.58
14) GGAACGAGGGCACGTTGATAGCAGAGTTTGATGG 2.37

---

System: VDR:RXRa (NR concentration 270 nM, RXRa partner concentration 90 nM)
Assay: PBM binding z-score (relative to random genomic background probes); higher = stronger binding; sequences stand for … in GC…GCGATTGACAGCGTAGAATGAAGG
Quick rule: PBM binding z-score of at least 0.7 means criterion met, below that means criterion not met.

1. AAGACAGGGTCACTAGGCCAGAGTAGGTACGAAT criterion met
2. AGAACGAGGGCAATGAGTTGATAGGACGGGTGGC criterion met
3. GATACAGGGTCAAGGCCAGAGTCCGCGTATTGAT criterion met
4. CAAACTAGGTCACGAAAGGTCATAGTCGAATGAC criterion met
5. CCTACTGGGCCACGAAAGGTCATTTATTCAGTGA criterion met
6. GCGACTGGGGTATCAGCAGGTTACCATAACTTAA criterion not met
7. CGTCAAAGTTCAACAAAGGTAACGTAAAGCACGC criterion met
8. GCTGCTAGGTCAGGTTGGTCATCTAACGGGTACG criterion met
9. ATCGAAAGGTCGAAGGTGAGTTTACCCACCCGAA criterion met
10. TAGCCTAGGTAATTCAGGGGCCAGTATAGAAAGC criterion not met
11. CCGACTGGGGCAACGTTACCATAACGCACAGCCA criterion not met
12. TCATATTGGTAAACAGGTGAAAGTCCGTAAGTTA criterion met
13. ACTAACGGGTCAACGAGGTTATAGCACGCGTATA criterion met
14. GCGATTGGGGCATCAGCAGGTTACCATAACTTAA criterion not met
15. CCTACTAGGTCATGGTCAGCTAATCTACAGTATG criterion met
16. CTAGACAGGTGAGAAGGTAACTCAGCCTCGATTA criterion not met
17. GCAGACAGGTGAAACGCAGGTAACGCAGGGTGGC criterion not met
18. TGTCAAAGTTCAAAGGTAACGTGAGTATCCACAC criterion met
19. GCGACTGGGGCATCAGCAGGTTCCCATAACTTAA criterion not met
20. GCTGCTAGGTCAGGTTGGTCACCTAACGGGTACG criterion met

---

System: PXR homodimer (NR concentration 270 nM)
Test: PBM binding z-score (relative to random genomic background probes); higher = stronger binding; sequences stand for … in GC…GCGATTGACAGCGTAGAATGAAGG
test readout: PBM binding z-score

1. ACAGAGAGGTGATGAAGGTAACTCAGGCTATCAT 0.268
2. GCATATAGGTGATACAAGGTGAAAGTCCGATTGT -0.00117
3. CAAACTAGGTCCAGAGGTCAAAGTCCGCTTCCCG 2.58
4. TCTGTTAGGTCAACGATGGTCAGCTAATCTGCTA 0.247
5. GCATACAGGTGAAACGCAGGTAACTCAGGGTGGC -0.513
6. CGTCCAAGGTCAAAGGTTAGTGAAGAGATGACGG 1.47
7. GCAGGCAGGTGAAACGCAGGTAACTCAGGGTGGC -1.2
8. AGTCAAAGTTCCGGACGAGGTAACGTAAAGCACG -0.452
9. CCTGGGAGGACAGAAGGTCAGAGCTGTCCGCTTT -0.162
10. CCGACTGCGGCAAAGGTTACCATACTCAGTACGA -0.16
11. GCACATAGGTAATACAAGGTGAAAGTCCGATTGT -0.214
12. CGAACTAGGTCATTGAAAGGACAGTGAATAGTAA 0.391
13. TCATATAGGTAAACAGGTGTAAGTCCGTAAGTTA 0.672
14. GGAGACAGGTGAAACGCAGGTAACTCAGGGTGGC -0.332
15. GCTATTAGTTGGAAGGGCAACCGAATGATTCTCG -0.0418
16. CCTGGTAGGTCAATGGTCAGCTAAAGCAGCTCGC 0.146
17. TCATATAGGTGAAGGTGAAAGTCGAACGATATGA 0.0381
18. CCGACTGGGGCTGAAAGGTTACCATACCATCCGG -0.23
19. AGTCAAAGTTCAGGACGAGGTAACTTAAAGCACG 1.4
20. CGTCCAAGATCAAAGGTCAGTGAAGAGATGACGG 0.13
21. AGAATGAGGCTATTAAGATCAGGGAATTGCGGTC -0.252
22. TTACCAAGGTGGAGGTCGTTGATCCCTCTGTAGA -0.028
23. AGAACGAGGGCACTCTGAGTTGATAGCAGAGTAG -0.0913
24. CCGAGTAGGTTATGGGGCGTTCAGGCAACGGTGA -0.251
25. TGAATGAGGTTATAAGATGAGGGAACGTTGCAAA -0.291
26. TCTTGTAGCTCAGCAGGTTAAGAAAGCTGGCCAA -0.524
27. CCAGACAGGTGAGAAGGTAACTAAGCCTCGATTA 0.346
28. ACAAACAGGTGATGAAGGTAACTCAGGCTATCAT 0.394
29. CCGACTGGGGCCAGGTTACCATAACGCACAGCCA -0.0661
30. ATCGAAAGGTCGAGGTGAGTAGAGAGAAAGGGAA 0.327
31. TCTTGTAGATCAATAGAGATTAAGAAAGTGCGCT 0.261
32. GCTAGCCGGCCATTTGGGTCACTCAATGACGGGC -0.217
33. TATTGTAGATCAGCAGGTTAAGAAAGCTGGCCAA -0.219
34. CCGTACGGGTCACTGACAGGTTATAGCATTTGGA -0.0858
35. TCGAGTAGGTTACCAATGGGGCATTCCGCTTTCT -1.08
36. CGAACTAGGTCAGAACAGGACAGTGGAGGATGAT -0.155
37. AGAACGAGGGCACTGAGTTGATAGCACGGGTGGC 4.15
38. ATATGTAGGTTGGCTGGGGTCATTCAGACTAGGC 4.44
39. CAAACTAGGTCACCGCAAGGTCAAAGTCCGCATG 2.22
